Biological target: T1, CD22 protein expressed on the surface of Daudi cells (human, UniProt P20273 20-847)
T1 construct: whole, on cells; also called human CD22; cell surface CD22
T1 sequence (looked up): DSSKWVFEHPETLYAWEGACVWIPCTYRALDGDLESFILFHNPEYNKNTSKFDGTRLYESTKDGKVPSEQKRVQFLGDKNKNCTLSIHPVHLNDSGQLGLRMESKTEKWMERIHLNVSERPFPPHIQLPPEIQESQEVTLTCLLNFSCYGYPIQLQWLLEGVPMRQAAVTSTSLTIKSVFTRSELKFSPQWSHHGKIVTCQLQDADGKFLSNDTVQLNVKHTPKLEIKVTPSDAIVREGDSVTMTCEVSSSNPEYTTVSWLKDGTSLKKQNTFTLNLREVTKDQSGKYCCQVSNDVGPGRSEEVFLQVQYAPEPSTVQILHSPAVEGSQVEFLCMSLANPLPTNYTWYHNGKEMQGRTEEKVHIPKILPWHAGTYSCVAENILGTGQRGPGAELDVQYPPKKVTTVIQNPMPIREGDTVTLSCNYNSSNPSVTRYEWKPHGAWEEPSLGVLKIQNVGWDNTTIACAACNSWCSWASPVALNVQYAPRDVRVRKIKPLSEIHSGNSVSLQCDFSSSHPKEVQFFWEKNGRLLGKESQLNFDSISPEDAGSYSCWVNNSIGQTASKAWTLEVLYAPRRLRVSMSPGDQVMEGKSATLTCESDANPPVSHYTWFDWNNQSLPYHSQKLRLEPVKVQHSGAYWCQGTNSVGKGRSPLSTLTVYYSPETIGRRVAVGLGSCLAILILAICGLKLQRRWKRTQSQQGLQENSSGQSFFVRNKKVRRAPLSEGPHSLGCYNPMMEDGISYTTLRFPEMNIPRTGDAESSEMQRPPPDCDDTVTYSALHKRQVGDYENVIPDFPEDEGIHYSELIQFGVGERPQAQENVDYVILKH
Assay: Quantitative confocal immunofluorescence of directly FITC-labelled antibody (5 ug/ml, 45 min on ice) on Daudi cells. paragraph 243 calls these 'RMF surface binding values'.
Exercise: state measured RMF (Daudi Internalization by Confocal) for each of the binders provided.

{"columns": ["binder", "RMF (Daudi Internalization by Confocal)"],
 "data": [
  ["VM1004 (antibody, V domains shown, Humanized antibody with human constant region; also called anti-CD22 Mab clone VM1004) VH: EVQLVQSGAEVKKPGATVKISCKVSGYVFTSYWLHWIRQSPSRGLEWLGYINPRNDYTEYNRIFKGRFVFSLDTSVSTAYLQICSLKAEDTAVYYCARRGITTFYWGQG VL: EIVLTQSPATLSLSPGERATLSCKSSQSVLYSAVEKNYLAWYQQKPGKAPKLLIYWASTRERGIPDRFSGSGSGTDFTLTISRLEPEDFAVYYCKQYLSSWTFGQG", "~100 RMF"]
]}

The record that follows has no RMF (Daudi Internalization by Confocal) shown yet.
Name the recorded RMF (Daudi Internalization by Confocal) for VM1011 (antibody, V domains shown, Humanized antibody with human constant region; also called anti-CD22 Mab clone VM1011) VH: QVQLQESGPGLVKPSQTLSLTCTVSGYVFTSYWLHWIRQPPGKGLEWIGYINPRNDYTEYNRIFKGRVTITADKSTSTAYMELSSLRSEDTAVYYCARRGITTFYWGQG VL: EIVLTQSPATLSLSPGERATLSCKSSQSVLYSAVEKNYLAWYQQKPGQAPRLLIYWASTRERGIPDRFSGSGSGTDFTLTISRLEPEDFAVYYCKQYLSSWTFGQG . ~200 RMF

Recorded values, source patent US20150086562A1.
